# System: ECU
# Method Description: qHTS profiling for inhibitors of Plasmodium falciparum proliferation (AID 504749); further: nearly all actives have a fitted effect of over 60% in size; further: potency means the concentration at half of the fitted maximal effect
# Condition Parameters: P. falciparum in erythrocytes, SYBR Green DNA, 72 h; series mostly up to 28.7 µM
Records with an inconclusive call do not appear. Active and inactive are the calls of the source. The call rests on the fitted dose curve; in most records, active means well fitted inhibition curve with a large enough effect; inconclusive means small, poorly fitted or top-dose-only effect; inactive means flat fitted curve, though single readings scatter.
Endpoint Label: Potency

Compound: CCN[C@]1(c2cccs2)CCCCC1=O
Result: inactive

Compound: C=CC1CN2CCC1CC2C(OC(=O)OCC)c1ccnc2ccc(OC)cc12 (centres undefined)
Result: 3.98 µM (active)

Compound: CC(=O)OCC(=O)[C@@H]1CC[C@H]2[C@H]3CC[C@H]4C[C@@H](O)CC[C@]4(C)[C@@H]3C(=O)C[C@@]12C
Result: inactive

Compound: CCC(C)C1O[C@]2(C=CC1C)CC1CC(C/C=C(\C)[C@H](OC3CC(OC)C(O[C@H]4CC(OC)[C@@H](O)C(C)O4)C(C)O3)[C@@H](C)/C=C/C=C3\COC4C(O)C(C)=C[C@H](C(=O)O1)[C@@]34O)O2 (some centres undefined)
Result: 8.91 µM (active)
